assay: Apparent permeability across human Caco2 cells; format: ADME, cell-based; details: Caco-2
outcome_measure: Papp (×10⁻⁶ cm/s)
Number only, in ×10⁻⁶ cm/s; omit the unit.

[[record]]
compound_string = "CC(C)C(=O)OC[C@@]1(N=[N+]=[N-])O[C@@H](n2ccc(N)nc2=O)[C@H](C)[C@@H]1OC(=O)C(C)C"
number = 7.7


Here is the next item to consider.
Data point: C[C@H]1[C@H](n2ccc(N)nc2=O)O[C@@](CO)(N=[N+]=[N-])[C@H]1O ; Papp = 1.7

---

system: Rattus norvegicus; experiment: Cmax in Sprague-Dawley rat assessed as 4'-azido-2'-deoxy-2'-methylcytidine level at 20 umol/kg, po; type: ADME, organism-based; design: dose 20 umol/kg, route oral; conditions: in vivo
Measured Cmax values are reported for all entries that follow.
Quick reminder: number only, in nM, skip the unit.

Cmax measured on CC(C)[C@H](N)C(=O)O[C@H]1[C@@H](C)[C@H](n2ccc(N)nc2=O)O[C@@]1(CO)N=[N+]=[N-].O=C(O)C(F)(F)F = 1140

// field: Cmax; key: CC(C)[C@H](N)C(=O)OC[C@@]1(N=[N+]=[N-])O[C@@H](n2ccc(N)nc2=O)[C@H](C)[C@@H]1OC(=O)[C@@H](N)C(C)C.O=C(O)C(F)(F)F ; value = 290

Data point: CC(C)[C@H](N)C(=O)OC[C@@]1(N=[N+]=[N-])O[C@@H](n2ccc(N)nc2=O)[C@H](C)[C@@H]1O.O=C(O)C(F)(F)F ; Cmax = 500

Measured Cmax, CC(C)C(=O)OC[C@@]1(N=[N+]=[N-])O[C@@H](n2ccc(N)nc2=O)[C@H](C)[C@@H]1OC(=O)C(C)C : 4650

---

assay: Cytotoxicity against human MT4 cells by LTR-luciferase reporter gene assay; type: cell-based
outcome_measure: CC50

Some molecules with recorded CC50:
[[record]]
molecule = "C[C@H]1[C@H](n2ccc(N)nc2=O)O[C@@](CO)(N=[N+]=[N-])[C@H]1O"
result = "> 98 µM"

[[record]]
molecule = "CC(C)C(=O)OC[C@@]1(N=[N+]=[N-])O[C@@H](n2ccc(N)nc2=O)[C@H](C)[C@@H]1OC(=O)C(C)C"
result = "> 50 µM"

[[record]]
molecule = "C[C@H]1[C@H](n2ccc(N)nc2=O)O[C@@](COP(=O)(N[C@@H](C)C(=O)OCc2ccccc2)Oc2cccc3ccccc23)(N=[N+]=[N-])[C@H]1O (stereo not given in full)"
result = "> 32 µM"

[[record]]
molecule = "C[C@H]1[C@H](n2ccc(=O)[nH]c2=O)O[C@@](CO)(N=[N+]=[N-])[C@H]1O"
result = "> 100 µM"


Consider the additional molecule presented here.
The value of CC50 measured for the molecule C[C@H]1[C@H](n2ccc(=O)[nH]c2=O)O[C@@](COP(=O)(N[C@@H](C)C(=O)OCc2ccccc2)Oc2cccc3ccccc23)(N=[N+]=[N-])[C@H]1O (stereo not given in full) turned out to be 41 µM

---

assay: Cytotoxicity against human HuH7 cells by CMV-luciferase reporter gene assay; format: cell-based, Huh-7
outcome_measure: CC50

Worked examples, 7 molecules total:
[[record]]
molecule = "C[C@H]1[C@H](n2ccc(N)nc2=O)O[C@@](CO)(N=[N+]=[N-])[C@H]1O"
result = "> 98 µM"

[[record]]
molecule = "CC(C)C(=O)OC[C@@]1(N=[N+]=[N-])O[C@@H](n2ccc(N)nc2=O)[C@H](C)[C@@H]1OC(=O)C(C)C"
result = "> 100 µM"

[[record]]
molecule = "CC(C)[C@H](N)C(=O)O[C@H]1[C@@H](C)[C@H](n2ccc(N)nc2=O)O[C@@]1(CO)N=[N+]=[N-].O=C(O)C(F)(F)F"
result = "> 100 µM"

[[record]]
molecule = "C[C@H]1[C@H](n2ccc(=O)[nH]c2=O)O[C@@](CO)(N=[N+]=[N-])[C@H]1O"
result = "> 100 µM"

[[record]]
molecule = "CC(C)[C@H](N)C(=O)OC[C@@]1(N=[N+]=[N-])O[C@@H](n2ccc(N)nc2=O)[C@H](C)[C@@H]1O.O=C(O)C(F)(F)F"
result = "> 100 µM"

[[record]]
molecule = "C[C@H]1[C@H](n2ccc(=O)[nH]c2=O)O[C@@](COP(=O)(N[C@@H](C)C(=O)OCc2ccccc2)Oc2cccc3ccccc23)(N=[N+]=[N-])[C@H]1O (stereo partly drawn)"
result = "> 100 µM"

[[record]]
molecule = "C[C@H]1[C@H](n2ccc(N)nc2=O)O[C@@](COP(=O)(N[C@@H](C)C(=O)OCc2ccccc2)Oc2cccc3ccccc23)(N=[N+]=[N-])[C@H]1O (stereo partly drawn)"
result = "> 100 µM"


Consider the record given below.
Looking up CC(C)[C@H](N)C(=O)OC[C@@]1(N=[N+]=[N-])O[C@@H](n2ccc(N)nc2=O)[C@H](C)[C@@H]1OC(=O)[C@@H](N)C(C)C.O=C(O)C(F)(F)F , I see its CC50 listed as > 100 µM
